Target: dopamine (DA) transport (Rattus norvegicus, UniProt P23977)
Sequence (P23977 whole entry): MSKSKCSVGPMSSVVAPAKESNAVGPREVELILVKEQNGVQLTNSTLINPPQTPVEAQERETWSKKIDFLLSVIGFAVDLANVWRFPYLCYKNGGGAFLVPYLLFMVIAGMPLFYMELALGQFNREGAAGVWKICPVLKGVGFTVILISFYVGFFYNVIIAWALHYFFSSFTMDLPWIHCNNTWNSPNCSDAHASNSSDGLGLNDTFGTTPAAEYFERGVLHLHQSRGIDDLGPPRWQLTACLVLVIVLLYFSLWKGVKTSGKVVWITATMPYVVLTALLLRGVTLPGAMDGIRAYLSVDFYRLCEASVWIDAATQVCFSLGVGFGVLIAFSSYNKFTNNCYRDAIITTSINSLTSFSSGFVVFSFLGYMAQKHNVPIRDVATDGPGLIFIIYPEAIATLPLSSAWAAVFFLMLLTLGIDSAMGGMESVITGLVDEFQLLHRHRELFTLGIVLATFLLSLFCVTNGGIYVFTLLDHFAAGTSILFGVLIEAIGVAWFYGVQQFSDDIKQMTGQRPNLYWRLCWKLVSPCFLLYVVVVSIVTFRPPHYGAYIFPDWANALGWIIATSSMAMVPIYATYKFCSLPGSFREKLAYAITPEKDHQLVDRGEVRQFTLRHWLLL
Assay: Inhibition of [3H]DA uptake in rat striatum synaptosomes
Type: biochemical
Parameters: synaptosomal preparations were made from either whole brain (5-HT), striatum (DA) or hypothalamus (NE); from tissue; host or cells: rat striatum synaptosomes
Conditions: rat striatum synaptosomes; [3H]DA; read-out: Uptake IC50 (nM) DA
observable: IC50 (nM)
Field format: number, assumed nM, no unit text.

>  <compound>
NC1C[C@H]2C[C@@]2(c2cccc3ccccc23)C1 (some centres unmarked)

>  <experimental-system>
dopamine (DA) transport (Rattus norvegicus, UniProt P23977)

>  <unit-tag>
nM

>  <IC50>
496

$$$$

Okay, next one:
## Task // map NC1CC2CC2(c2ccc(Cl)c(Cl)c2)C1 (centres unmarked) to recorded IC50 (system: dopamine (DA) transport (Rattus norvegicus, UniProt P23977))
## Result 111
